Assay: Solubility in water at 25 °C (weight recovered undissolved and weight dissolved after stirring 5 hours)
Format: physicochemical
Conditions: water, head prints 10 ml, text prints 100 ml
Form field: solubility thermodynamic at 5 h (one value per entry).
Readout type: solubility thermodynamic at 5 h

compound="C=CS(=O)(=O)CC(=O)NCCNC(=O)CS(=O)(=O)C=C [Comparative Compound (I), reference compound]" readout_type="solubility thermodynamic at 5 h" measurement="20 mg/mL"
compound=C=CS(=O)(=O)C(CCc1ccc(S(=O)(=O)O)cc1)S(=O)(=O)C=C readout_type="solubility thermodynamic at 5 h" measurement="> 100 mg/mL"
